experiment: small molecules captured by biotinylated probe aFGF2 – biochemical, small-molecule microarray, fluorescence 635/667, stem cell growth factor project, primary screen (AID 1067); conditions: higher = more signal;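 note: measures binding of biotinylated aFGF2 protein to printed compounds on slides; z-score merges feature fluorescence and signal-to-noise across triplicate slides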
Listed compounds paired with reported composite z-score
API note: the answer field is a bare number with no unit suffix.

Past entries and their recorded results:
Smiles: COCC(=C=CC[C@H](O)c1ccccc1OCCO)C[C@H](O)c1ccccn1
Measured Value: -0.128

Smiles: CO[C@H]1O[C@H](CO)[C@@H](OC(=O)Nc2ccc3c(c2)OCO3)[C@H](OC(=O)Nc2ccc3c(c2)OCO3)[C@@H]1OC(=O)Nc1ccc2c(c1)OCO2
Measured Value: 0.256

Smiles: C#Cc1cc2ccccc2oc1=O
Measured Value: 0.153

Smiles: CCCC=C(CCC)[C@@H](NP(=O)(c1ccccc1)c1ccccc1)c1ccc(-c2ccccc2)cc1
Measured Value: 0.112

Smiles: CC(C)NC(=O)[C@@]1(c2ccc([N+](=O)[O-])cc2)CC(=O)N(C2CCCCC2)[C@@H]1c1ccc(CO)cc1
Measured Value: 0.0584

Smiles: C=CC[C@@]1(C(=O)NCCCOC)N=C(c2ccc(OCCCO)cc2)O[C@@H]1c1ccccc1
Measured Value: 0.0679

Smiles: C=CCNC(=O)[C@@H]1[C@H]2C(=O)O[C@H](c3ccccc3)[C@H](c3ccccc3)N2[C@H](c2ccccc2OCCO)[C@@]12C(=O)N(C(=O)OCCOC)c1ccc(C#CC3(O)CCCCCC3)cc12
Measured Value: -0.0004

### Prompt Query (compound): C=C(/C(=C/C[C@H](OC(C)=O)c1ccc(CO)o1)c1cnc2ccccc2c1)C(C)C ; field requested: composite z-score
### Response 0.0122

###

target: Alpha-bungarotoxin (Bungarus multicinctus); test: compounds binding labelled alpha-BTX control protein – biochemical, small-molecule microarray, Alexa647 label, 635/667 nm fluorescence, artefact control for SMM control protein annotation, profiling panel (AID 1117); settings: alpha-BTX-A647 binding fluorescence, higher = more signal
Listed molecules paired with reported composite z-score
API note: the answer field is a bare number with no unit suffix.

Past entries and their recorded results:
Molecule: Cc1ccc(S[C@]2(C(=O)NCC(F)(F)F)CC(=O)N(Cc3cc(C(F)(F)F)cc(C(F)(F)F)c3)[C@@H]2c2ccc(CO)cc2)cc1
composite z-score: -0.633
//
Molecule: COC(=O)C1=CC(CCCO)=CC(c2ccc(CN3CCCC3)cc2)N(Cc2cccc(OC(F)(F)F)c2)C=C1C(=O)OC (configuration not stated)
composite z-score: 1.89
//
Molecule: CC(C)[Si]1(C(C)C)OCc2cc(C3CC3)nc(-c3ccc(Oc4ccccc4)cc3)c21
composite z-score: -0.336
//
Molecule: COc1ccccc1CN1C(=O)c2ccccc2[C@](Cc2ccccc2I)(C(=O)O)[C@@H]1c1ccc(CO)cc1
composite z-score: 1.21
//
Molecule: C=CCN1Cc2ccccc2[C@@H]2OC(c3ccc(OCCCO)cc3)=N[C@]2(CC=C)C1=O
composite z-score: 2.04
//
Molecule: COc1ccc([Si](C)(C)[C@H]2[C@H](CC(=O)N(CCO)Cc3ccccc3)O[C@@]3(C(=O)N(C)c4c(Br)cc(C)cc43)[C@@H]2C)cc1
composite z-score: 0.572

Attention now shifts to the item below.
### Prompt Query (molecule): COCCOC(=O)N1C(=O)[C@@]2(c3cc(C#CC4(O)CCCCCC4)ccc31)[C@H](C(=O)N1CCc3cc(OC)c(OC)cc3C1)[C@H]1C(=O)O[C@H](c3ccccc3)[C@H](c3ccccc3)N1[C@@H]2c1ccc(OCCO)cc1 ; field requested: composite z-score
### Response 0.152
